target: T1, SARS-CoV-2 S on CHO-S cells (SARS-CoV-2, UniProt P0DTC2 14-1273); assay: flow cytometry, CHO-S cells
T1 construct: whole, on cells
Listing of recorded Bmax by entry.
Answer with a number only.

binder="NRCoV2-S2G4 VHH-Fc (Fc fusion, bivalent VHH-Fc) QVQLVQSGGGLVQAGGSLTLSCAPSGSTFSGYATNWYRQAPGKQRELVATISSDGDKNYADSVKGRFTISRDNAKNTVYLQMNSLKPEDTAVYYCNKHWWTGDWWGQGTQVTVSS" recorded_result=6900

# next binder below
Kindly indicate its recorded Bmax. Item: NRCoV2-MRed22 VHH-Fc (Fc fusion, bivalent VHH-Fc) EVQLVESGGGLVQPGGSLRLSCAASGSVFASNAMGWYRQAPGKQRELVATISSRGSTNYADSVKGRFTISRDNAKNTVYLQMNSLGPEDTAVYYCNAREFTGFDYWGQGTQVTVSS
5320
